test: chemical genetic growth profiling, strain panel (AID 1159580);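 also: tested at 20 µM; growth read once vehicle control cultures reached saturation at 30 °C; 1 = growth at the plate median or of vehicle wells; lower values mean less growth of the strain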; conditions: S. cerevisiae deletion strains, growth OD, locus YDR101C, strain arx1, active compounds read low
Screen size: about 5,500 compounds; about 2,000 (36%) were called active. Roughly 18% stayed inconclusive and do not appear here. This is one part of the list.
So I've got a bunch of molecules here, and I need their normalized growth values.

## Task Give me measured normalized growth, please, for this molecule: CC(=O)OCC(=O)[C@@]1(O)CCC2C3C[C@H](C)C4=CC(=O)C=CC4(C)C3[C@@H](O)CC21C (some centres undefined)
## Result 1 (inactive)

## Task Give me measured normalized growth, please, for this molecule: Nc1nc(/C(=C/CC(=O)O)C(=O)N[C@@H]2C(=O)N3C(C(=O)O)=CCS[C@H]23)cs1
## Result 0.99 (inactive)

## Task Give me measured normalized growth, please, for this molecule: C[N+]1(C)C[C@H](O)[C@H](C(=O)[O-])C1
## Result 0.988 (inactive)

## Task Give me measured normalized growth, please, for this molecule: CO[C@@H]1C[C@H](O[C@H]2CC[C@]3(C)C4CC[C@]5(C)[C@@H](C6=CC(=O)OC6)CC[C@]5(O)[C@@H]4CC[C@]3(O)C2)O[C@H](C)[C@@H]1O (some centres undefined)
## Result 1.01 (inactive)
